This section presents molecules with their documented ID/g values.
organism: Rattus norvegicus; experiment: Biodistribution of radioactivity in rat cerebellum upon Tail-Vein injection of [11C]-labeled compound after 60 min; format: ADME, organism-based; settings: in vivo, iv, 1 h
Value expressed in %; do not type the unit.

>>> data_value("CN(C)Cc1ccccc1Sc1ccc(C#N)cc1N [DASB]")
0.07
>>> data_value("COc1ccc(Sc2ccccc2CN(C)C)c(N)c1")
0.1
>>> data_value("CN(C)Cc1ccccc1Sc1ccc(Cl)cc1N")
0.23

For the next question, use this molecule.
-- ask Need ID/g of "CN(C)Cc1ccccc1Sc1ccc(C(F)(F)F)cc1N" , thanks.
-- reply 0.28

###

organism: Rattus norvegicus; assay: Biodistribution of radioactivity in rat striatum upon Tail-Vein injection of [11C]-labeled compound after 5 min; type: ADME, organism-based; settings: in vivo, iv
Experimental endpoint: ID/g (%)
Numbers only here, please. The scale is %.

// known answers, use as guide
>>> data_value("COc1ccc(Sc2ccccc2CN(C)C)c(N)c1")
1.19
>>> data_value("CN(C)Cc1ccccc1Sc1ccc(C(F)(F)F)cc1N")
1.05
>>> data_value("CN(C)Cc1ccccc1Sc1ccc(C#N)cc1N")
1.24

Next item in the queue.
-- ask Query: ID/g; subject: "CN(C)Cc1ccccc1Sc1ccc(Cl)cc1N"
-- reply 1.36

###

organism: Rattus norvegicus; test: Biodistribution of radioactivity in rat hippocampus upon Tail-Vein injection of [11C]-labeled compound after 60 min; format: ADME, organism-based; conditions: in vivo, iv, 1 h
Experimental endpoint: ID/g (%)
Form entry: value (%) — number only.

Worked set:
>>> data_value("CN(C)Cc1ccccc1Sc1ccc(C#N)cc1N")
0.35
>>> data_value("COc1ccc(Sc2ccccc2CN(C)C)c(N)c1")
0.38

-- ask Record request: ID/g value, item "CN(C)Cc1ccccc1Sc1ccc(Cl)cc1N"
-- reply 0.74

-- ask Please give the measured ID/g for this compound: "CN(C)Cc1ccccc1Sc1ccc(C(F)(F)F)cc1N"
-- reply 0.75

###

species on record: Rattus norvegicus; assay: Biodistribution of radioactivity in rat blood upon Tail-Vein injection of [11C]-labeled compound after 5 min; type: ADME, organism-based; settings: in vivo, iv
Measured ID/g of individual entries
Numbers only here, please. The scale is %.

Recorded ID/g, per entry:
>>> data_value("CN(C)Cc1ccccc1Sc1ccc(C(F)(F)F)cc1N")
0.35
>>> data_value("COc1ccc(Sc2ccccc2CN(C)C)c(N)c1")
0.3
>>> data_value("CN(C)Cc1ccccc1Sc1ccc(C#N)cc1N")
0.58

-- ask I'd like to know its ID/g. The compound in question is "CN(C)Cc1ccccc1Sc1ccc(Cl)cc1N"
-- reply 0.39

###

Recorded measurements of ID/g, one per entry
organism: Rattus norvegicus; assay: Biodistribution of radioactivity in rat thalamus upon Tail-Vein injection of [11C]-labeled compound after 5 min; assay type: ADME, organism-based; conditions: in vivo, iv
Give the number; % is assumed, so skip it.

Record excerpt, results attached:
>>> data_value("CN(C)Cc1ccccc1Sc1ccc(C(F)(F)F)cc1N")
1.07
>>> data_value("COc1ccc(Sc2ccccc2CN(C)C)c(N)c1")
1.12
>>> data_value("CN(C)Cc1ccccc1Sc1ccc(Cl)cc1N")
1.43

-- ask Using the record for "CN(C)Cc1ccccc1Sc1ccc(C#N)cc1N" , report its ID/g.
-- reply 1.15

###

organism: Rattus norvegicus; experiment: Biodistribution of radioactivity in rat cortex upon Tail-Vein injection of [11C]-labeled compound after 30 min; assay type: ADME, organism-based; details: in vivo, iv, 0.5 h
Recorded ID/g for the following compounds
The answer is to be given in %; state only the numeric part.

Here's what some known entries look like.
>>> data_value("CN(C)Cc1ccccc1Sc1ccc(C(F)(F)F)cc1N")
0.98
>>> data_value("CN(C)Cc1ccccc1Sc1ccc(Cl)cc1N")
1.14
>>> data_value("COc1ccc(Sc2ccccc2CN(C)C)c(N)c1")
0.7

Please look at the following compound next.
-- ask What value of measured ID/g is listed for "CN(C)Cc1ccccc1Sc1ccc(C#N)cc1N" ?
-- reply 0.74

###

species on record: Rattus norvegicus; test: Biodistribution of radioactivity in rat hypothalamus upon Tail-Vein injection of [11C]-labeled compound after 60 min; format: ADME, organism-based; details: in vivo, iv, 1 h
Overview of recorded ID/g for various compounds
Express the result in % but write the number alone.

>>> data_value("CN(C)Cc1ccccc1Sc1ccc(Cl)cc1N")
1.19
>>> data_value("CN(C)Cc1ccccc1Sc1ccc(C(F)(F)F)cc1N")
0.99

-- ask Tell me the measured ID/g of "CN(C)Cc1ccccc1Sc1ccc(C#N)cc1N" , please.
-- reply 0.62

-- ask Look up ID/g for this compound: "COc1ccc(Sc2ccccc2CN(C)C)c(N)c1"
-- reply 0.63

###

species on record: Rattus norvegicus; test: Biodistribution of radioactivity in rat thalamus upon Tail-Vein injection of [11C]-labeled compound after 15 min; assay type: ADME, organism-based; conditions: in vivo, iv, 0.25 h
Experimental endpoint: ID/g (%)
Answer format: numeric, % implied, no suffix.

// solved cases for ID/g follow
>>> data_value("CN(C)Cc1ccccc1Sc1ccc(C(F)(F)F)cc1N")
1.06
>>> data_value("CN(C)Cc1ccccc1Sc1ccc(Cl)cc1N")
1.54
>>> data_value("CN(C)Cc1ccccc1Sc1ccc(C#N)cc1N [DASB]")
1.21

Proceeding to the next compound to report its ID/g.
-- ask Any idea what ID/g was measured for "COc1ccc(Sc2ccccc2CN(C)C)c(N)c1" ?
-- reply 1.13

###

organism: Rattus norvegicus; assay: Biodistribution of radioactivity in rat blood upon Tail-Vein injection of [11C]-labeled compound after 15 min; type: ADME, organism-based; settings: in vivo, iv, 0.25 h
Experimental endpoint: ID/g (%)
State the answer as a number, implicitly in %.

>>> data_value("CN(C)Cc1ccccc1Sc1ccc(Cl)cc1N")
0.28
>>> data_value("CN(C)Cc1ccccc1Sc1ccc(C#N)cc1N")
0.31
>>> data_value("COc1ccc(Sc2ccccc2CN(C)C)c(N)c1")
0.17

Now look at this entry.
-- ask Would you kindly share the measured ID/g for "CN(C)Cc1ccccc1Sc1ccc(C(F)(F)F)cc1N" ?
-- reply 0.21

###

species: Rattus norvegicus; experiment: Biodistribution of radioactivity in rat hypothalamus upon Tail-Vein injection of [11C]-labeled compound after 5 min; type: ADME, organism-based; conditions: in vivo, iv
Experimental endpoint: ID/g (%)
API: value field is a number in %; no unit string.

Worked set:
>>> data_value("CN(C)Cc1ccccc1Sc1ccc(Cl)cc1N")
1.36
>>> data_value("CN(C)Cc1ccccc1Sc1ccc(C(F)(F)F)cc1N")
1.02
>>> data_value("CN(C)Cc1ccccc1Sc1ccc(C#N)cc1N")
1.25

-- ask Looking for the measured ID/g of "COc1ccc(Sc2ccccc2CN(C)C)c(N)c1" , can you help?
-- reply 1.22

###

species on record: Rattus norvegicus; assay: Biodistribution of radioactivity in rat striatum upon Tail-Vein injection of [11C]-labeled compound after 30 min; format: ADME, organism-based; details: in vivo, iv, 0.5 h
Experimental endpoint: ID/g (%)
// note: answer is a bare numeric in %

Example entries begin here.
>>> data_value("CN(C)Cc1ccccc1Sc1ccc(C(F)(F)F)cc1N")
0.99
>>> data_value("CN(C)Cc1ccccc1Sc1ccc(Cl)cc1N")
1.17
>>> data_value("COc1ccc(Sc2ccccc2CN(C)C)c(N)c1")
0.76

// moving on: another record for ID/g
-- ask Given the entry "CN(C)Cc1ccccc1Sc1ccc(C#N)cc1N" , report its measured ID/g.
-- reply 0.77

###

organism: Rattus norvegicus; assay: Biodistribution of radioactivity in rat thalamus upon Tail-Vein injection of [11C]-labeled compound after 60 min; assay type: ADME, organism-based; conditions: in vivo, iv, 1 h
Experimental endpoint: ID/g
Hi, when you answer, please include the unit after the number. Thanks!

See these solved cases before continuing.
>>> data_value("CN(C)Cc1ccccc1Sc1ccc(C(F)(F)F)cc1N")
"0.89%"
>>> data_value("CN(C)Cc1ccccc1Sc1ccc(Cl)cc1N")
"1.24%"
>>> data_value("COc1ccc(Sc2ccccc2CN(C)C)c(N)c1")
"0.48%"

Continue with the next compound.
-- ask So what does the record say about ID/g for "CN(C)Cc1ccccc1Sc1ccc(C#N)cc1N" ?
-- reply 0.49%

###

species on record: Rattus norvegicus; assay: Biodistribution of radioactivity in rat hippocampus upon Tail-Vein injection of [11C]-labeled compound after 5 min; assay type: ADME, organism-based; conditions: in vivo, iv
Experimental endpoint: ID/g (%)
Write the number in % without appending the unit.

These solved cases illustrate the format of a correct answer.
>>> data_value("CN(C)Cc1ccccc1Sc1ccc(C#N)cc1N")
1.13
>>> data_value("COc1ccc(Sc2ccccc2CN(C)C)c(N)c1")
1.09
>>> data_value("CN(C)Cc1ccccc1Sc1ccc(Cl)cc1N")
1.06

Now turn to the next molecule.
-- ask Entry "CN(C)Cc1ccccc1Sc1ccc(C(F)(F)F)cc1N" has what ID/g?
-- reply 0.92
